# Tested on: A549/ATCC
# METHOD_DESCRIPTION: NCI one-dose screen
# Format: cell-based
# CONDITION_DESCRIPTION: Homo sapiens, read-out: Growth Percent
Recorded activity at 10 µM, one value per entry.
Please state the figure in %; there is no need to write the unit.

1. COc1ccc(/C=C/C(=O)c2ccc(-n3cc(CN4CCN(c5cc6c(cc5F)c(=O)c(C(=O)O)cn6C5CC5)CC4)nn3)cc2)cc1: 89
2. O=C(/C=C/c1ccc(Br)cc1)c1ccc(-n2cc(CN3CCN(c4cc5c(cc4F)c(=O)c(C(=O)O)cn5C4CC4)CC3)nn2)cc1: 90.5

We now examine a further molecule.
For reference, reported activity at 10 µM for Cc1ccc(/C=C/C(=O)c2ccc(-n3cc(CN4CCN(c5cc6c(cc5F)c(=O)c(C(=O)O)cn6C5CC5)CC4)nn3)cc2)cc1 stands at 87.3
